Origin of measurements: BindingDB's records for doi:10.1016/j.bmcl.2017.11.026

- ASSAYED TARGET: Tumor necrosis factor (Homo sapiens, UniProt P01375)
- Sequence (P01375 whole entry): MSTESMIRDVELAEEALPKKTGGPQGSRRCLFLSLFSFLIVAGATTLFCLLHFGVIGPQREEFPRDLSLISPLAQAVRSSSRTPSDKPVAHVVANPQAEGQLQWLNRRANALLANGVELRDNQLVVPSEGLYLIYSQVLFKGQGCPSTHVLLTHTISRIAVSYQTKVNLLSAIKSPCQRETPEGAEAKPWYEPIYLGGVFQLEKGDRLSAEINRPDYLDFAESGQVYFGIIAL
- MEASUREMENT DESCRIPTION: Inhibition of LPS-induced TNF-alpha production in human PBMC preincubated for 30 mins followed by LPS addition measured after 5 hrs by ELISA
pIC50: −log10 of the molar value.
PROPERTY LABEL: pIC50

>>> test_result("NS(=O)(=O)c1cnc2ccc(Cl)nn12")
4.55
>>> test_result("COc1cccc(CNS(=O)(=O)c2cnc3ccc(-c4cccnc4)nn23)c1")
6.52
>>> test_result("Nc1ncc(-c2ccc3ncc(S(N)(=O)=O)n3n2)cc1C(F)(F)F")
5.40
>>> test_result("O=S(=O)(NCC1CCCO1)c1cnc2ccc(-c3cccnc3)nn12 (stereo not given)")
5.40
>>> test_result("COc1ccc(-c2ccc3ncc(S(=O)(=O)NCC4CCCO4)n3n2)cc1 (stereo not given)")
5.40
>>> test_result("O=S(=O)(NCC1CCCO1)c1cnc2ccc(-c3cncc(F)c3)nn12 (stereo not given)")
5.40
